TARGET_DESC: Axl (Homo sapiens, UniProt P30530)
Sequence (P30530 26-894): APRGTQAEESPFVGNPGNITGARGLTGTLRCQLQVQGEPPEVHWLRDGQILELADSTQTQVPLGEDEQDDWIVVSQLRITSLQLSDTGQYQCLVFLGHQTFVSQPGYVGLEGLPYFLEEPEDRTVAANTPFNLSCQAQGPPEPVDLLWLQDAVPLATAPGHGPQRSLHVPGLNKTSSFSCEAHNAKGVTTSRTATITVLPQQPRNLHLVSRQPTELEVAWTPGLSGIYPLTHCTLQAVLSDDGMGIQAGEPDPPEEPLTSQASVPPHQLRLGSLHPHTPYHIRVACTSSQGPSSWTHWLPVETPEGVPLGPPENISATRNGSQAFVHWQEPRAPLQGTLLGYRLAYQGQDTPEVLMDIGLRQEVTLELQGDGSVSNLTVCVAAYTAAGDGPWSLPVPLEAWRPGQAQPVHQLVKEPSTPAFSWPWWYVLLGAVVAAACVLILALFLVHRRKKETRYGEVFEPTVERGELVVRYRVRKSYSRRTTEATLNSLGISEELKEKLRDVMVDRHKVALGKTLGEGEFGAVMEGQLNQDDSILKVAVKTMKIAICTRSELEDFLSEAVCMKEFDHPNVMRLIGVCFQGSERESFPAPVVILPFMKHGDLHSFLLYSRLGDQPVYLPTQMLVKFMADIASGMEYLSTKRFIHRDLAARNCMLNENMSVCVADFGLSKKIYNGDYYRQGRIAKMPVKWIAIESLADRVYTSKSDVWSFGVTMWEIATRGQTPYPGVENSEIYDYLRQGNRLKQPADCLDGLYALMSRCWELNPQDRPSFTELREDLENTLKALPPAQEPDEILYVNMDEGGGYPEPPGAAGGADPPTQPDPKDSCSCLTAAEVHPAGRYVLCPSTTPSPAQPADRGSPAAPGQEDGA
ASSAY_COMMENT: Axl NanoBRET intracellular kinase assay (Cell Binding)
Set-up: host or cells: HEK-293
RUN_PARAMETERS: HEK-293 cells transfected with Axl-NanoLuc fusion vector; displacement of K-5 NanoBRET tracer
Quick reference: IC50 of the listed items.

- MOLECULE: "O=C1NCCOc2cc(-c3n[nH]c4ncc(-c5ccc6c(c5)CN(C5CCCC5)CC6)cc34)ccc21 [Example 10]"
  TARGET_DESC: "Axl (Homo sapiens, UniProt P30530)"
  IC50: "100 to 1000 nM"
- MOLECULE: "O=C1NCCOc2cc(-c3n[nH]c4ncc(-c5ccc6c(c5)CCNCC6)cc34)ccc21 [Example 53]"
  TARGET_DESC: "Axl (Homo sapiens, UniProt P30530)"
  IC50: "100 to 1000 nM"
- MOLECULE: "O=C1NCCOc2cc(-c3n[nH]c4ncc(-c5ccc6c(c5)CCC(N5CCC[C@@H]5CO)CC6)cc34)ccc21 (some centres unmarked) [Example 49]"
  TARGET_DESC: "Axl (Homo sapiens, UniProt P30530)"
  IC50: "< 100 nM"

Entry under test: CS(=O)(=O)N1CCc2ccc(-c3cnc4[nH]nc(-c5ccc6c(c5)OCCNC6=O)c4c3)cc2CC1 [Example 18] . Its IC50 was > 1000 nM

Entry under test: C[C@@H]1CCCN1C1(C)CCc2ccc(-c3cnc4[nH]nc(-c5ccc6c(c5)OCCNC6=O)c4c3)cc2CC1 (some centres unmarked) [Example 23] . Its IC50 was < 100 nM

Entry under test: CC1(C)NS(=O)(=O)c2cc(-c3n[nH]c4ncc(-c5ccc6c(c5)CCC(N5CCCC5)CC6)cc34)ccc21 (centres unmarked) [Example 32] . Its IC50 was < 100 nM

Entry under test: CC1(O)CCOc2cc(-c3n[nH]c4ncc(-c5ccc6c(c5)CC[C@@H](N5CCCC5)CC6)cc34)ccc21 (some centres unmarked) [Example 31] . Its IC50 was < 100 nM

Entry under test: C[C@H]1CCCN1C1Cc2ccc(-c3cnc4[nH]nc(-c5ccc6c(c5)OCC(C)(C)NC6=O)c4c3)cc2C1 (some centres unmarked) [Example 39] . Its IC50 was < 100 nM

----------
TARGET_DESC: recombinant human TYRO3 (Homo sapiens, UniProt Q06418)
Sequence (Q06418 41-890): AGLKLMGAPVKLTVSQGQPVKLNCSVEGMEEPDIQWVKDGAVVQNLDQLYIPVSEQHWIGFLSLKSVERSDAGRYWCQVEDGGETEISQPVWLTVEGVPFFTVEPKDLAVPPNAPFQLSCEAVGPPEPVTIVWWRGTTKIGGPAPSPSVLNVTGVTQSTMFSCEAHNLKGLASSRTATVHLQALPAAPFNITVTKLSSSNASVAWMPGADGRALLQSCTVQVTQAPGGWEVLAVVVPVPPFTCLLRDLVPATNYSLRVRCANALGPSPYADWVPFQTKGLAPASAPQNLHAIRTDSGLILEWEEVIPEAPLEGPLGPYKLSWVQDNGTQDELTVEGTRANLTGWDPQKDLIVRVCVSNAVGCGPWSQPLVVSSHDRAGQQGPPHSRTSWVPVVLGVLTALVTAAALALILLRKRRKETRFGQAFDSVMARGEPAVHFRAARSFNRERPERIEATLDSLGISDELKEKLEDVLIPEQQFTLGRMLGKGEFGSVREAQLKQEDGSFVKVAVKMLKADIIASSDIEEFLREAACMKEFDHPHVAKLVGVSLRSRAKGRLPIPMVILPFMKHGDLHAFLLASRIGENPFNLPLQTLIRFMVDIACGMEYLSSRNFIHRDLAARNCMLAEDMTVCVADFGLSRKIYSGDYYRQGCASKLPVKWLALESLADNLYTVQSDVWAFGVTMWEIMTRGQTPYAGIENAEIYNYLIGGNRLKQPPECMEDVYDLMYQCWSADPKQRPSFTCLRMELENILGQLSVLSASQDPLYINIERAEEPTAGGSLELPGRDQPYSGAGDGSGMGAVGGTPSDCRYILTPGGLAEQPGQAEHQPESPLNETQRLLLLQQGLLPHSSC
ASSAY_COMMENT: HTRF KinEASE-TK biochemical potency, TYRO3
RUN_PARAMETERS: 1 nM TYRO3, 700 μM ATP
READOUT: IC50

Some compounds with known IC50 results, for comparison:
- COMPOUND: "Cc1c(-c2n[nH]c3ncc(-c4ccc5c(c4)CCC(N4CCC[C@H]4C)CC5)cc23)ccc2c1OCCNC2=O (stereo partly drawn)"
  IC50: "< 100 nM"
- COMPOUND: "O=C1NCCOc2cc(-c3n[nH]c4ncc(-c5ccc6c(c5)CCNC6)cc34)ccc21"
  IC50: "< 100 nM"
- COMPOUND: "O=C1NCCOc2cc(-c3n[nH]c4ncc(-c5ccc6c(c5)CCC(N5CCOCC5)CC6)cc34)ccc21 (stereo not drawn)"
  IC50: "< 100 nM"
- COMPOUND: "C[C@@H]1CCCN1C1(C)CCc2ccc(-c3cnc4[nH]nc(-c5ccc6c(c5)OCCNC6=O)c4c3)cc2CC1 (stereo partly drawn)"
  IC50: "< 100 nM"
- COMPOUND: "O=C1NCCOc2cc(-c3n[nH]c4ncc(-c5ccc6c(c5)CCC(N[C@@H]5CCOC5)C6)cc34)ccc21 (stereo partly drawn)"
  IC50: "< 100 nM"
- COMPOUND: "C[C@@H]1CCCN1C1CCc2ccc(-c3cnc4[nH]nc(-c5ccc6c(c5)S(=O)(=O)NC6(C)C)c4c3)cc2CC1 (stereo partly drawn)"
  IC50: "< 100 nM"

Entry under test: C[C@@H]1CCCN1C1CCc2ccc(-c3cnc4[nH]nc(-c5ccc6c(c5)OCCC6(C)O)c4c3)cc2CC1 (stereo partly drawn) . Its IC50 was < 100 nM

Entry under test: CC1(O)CCCCc2cc(-c3n[nH]c4ncc(-c5ccc6c(c5)CCN(C5CCCC5)CC6)cc34)ccc21 (stereo not drawn) . Its IC50 was 100 to 1000 nM

Entry under test: CC1(C)NS(=O)(=O)c2cc(-c3n[nH]c4ncc(-c5ccc6c(c5)CCC(N5CCCC5)CC6)cc34)ccc21 (stereo not drawn) . Its IC50 was < 100 nM
